Test system: female CD-1 mouse
assay_text: Pharmacokinetic studies in mice (IV clearance)
Assay type: in vivo
condition_set: blood clearance
parameter_measured: in vivo obs. CL,b (mL/min/kg)
Field format: number, assumed mL/min/kg, no unit text.

Form entry - test system: female CD-1 mouse; read-out: in vivo obs. CL,b; compound: N#Cc1c[nH]c2c(C(=O)N3CCN(CCc4ccc(F)cc4)CC3)cccc12
63.61

Lab request: please report in vivo obs. CL,b under test system female CD-1 mouse for O=C(O)c1cc(-c2ccc(F)cc2F)ccc1O
2.83

Field: in vivo obs. CL,b (female CD-1 mouse). Entry: CNC(=O)c1cc(Oc2ccc3nc(N[C@@H]4CCCC[C@H]4O)sc3c2)ccn1
6.38

Checklist item: in vivo obs. CL,b tested on female CD-1 mouse, entry COc1cccc(OCCCN)c1-c1cc(Nc2cnc(C#N)cn2)n[nH]1 , value?
77.00

---

Could you please report measured in vivo obs. CLint,b,u for the items listed next?
Tested on: female CD-1 mouse
assay_text: Pharmacokinetic studies in mice (IV clearance)
Format: in vivo
condition_set: unbound blood intrinsic clearance
Please respond with the number in mL/min/kg and leave the unit unwritten.

Look at this compound and give its reported in vivo obs. CLint,b,u. O=C(O)c1cc(-c2ccc(F)cc2F)ccc1O
170.57

Consider the compound shown here: N#Cc1c[nH]c2c(C(=O)N3CCN(CCc4ccc(F)cc4)CC3)cccc12 What is its recorded in vivo obs. CLint,b,u?
3658.76

I have this compound here, COc1cccc(OCCCN)c1-c1cc(Nc2cnc(C#N)cn2)n[nH]1 , and I need its recorded in vivo obs. CLint,b,u.
1652.94

# input compound: CNC(=O)c1cc(Oc2ccc3nc(N[C@@H]4CCCC[C@H]4O)sc3c2)ccn1 ; wanted: its in vivo obs. CLint,b,u
89.15

---

assay_text: Unbound fraction in the microsome incubation (fu,mic) by rapid equilibrium dialysis
Format: in vitro ADME, human
condition_set: experimental unbound fraction in microsome incubation
parameter_measured: fu,mic
Reply with a number, then the unit it belongs to.

Which fu,mic value belongs to N#Cc1c[nH]c2c(C(=O)N3CCN(CCc4ccc(F)cc4)CC3)cccc12 ?
35.01%

Tell me the measured fu,mic of COc1cccc(OCCCN)c1-c1cc(Nc2cnc(C#N)cn2)n[nH]1 , please.
58.66%

Consider the molecule shown here: CNC(=O)c1cc(Oc2ccc3nc(N[C@@H]4CCCC[C@H]4O)sc3c2)ccn1 What is its recorded fu,mic?
87.21%

Requested read-out: fu,mic. Entry: O=C(O)c1cc(-c2ccc(F)cc2F)ccc1O
91.70%

---

I'd appreciate it if you could supply Fold obs. / pred. (hep.) CL,b,u - Kilford values for the items below.
System: female CD-1 mouse
assay_text: IVIVE of mouse clearance from hepatocytes (well-stirred model, regression correction)
condition_set: hepatocytes, Kilford fu,hep
Answer field: number only, no words.

Looking for the measured Fold obs. / pred. (hep.) CL,b,u - Kilford of O=C(O)c1cc(-c2ccc(F)cc2F)ccc1O [MSC001] , can you help?
0.3

What value of measured Fold obs. / pred. (hep.) CL,b,u - Kilford is listed for N#Cc1c[nH]c2c(C(=O)N3CCN(CCc4ccc(F)cc4)CC3)cccc12 [MSC213] ?
1.4

What value of Fold obs. / pred. (hep.) CL,b,u - Kilford has been reported for the following molecule? CNC(=O)c1cc(Oc2ccc3nc(N[C@@H]4CCCC[C@H]4O)sc3c2)ccn1 [MSC003]
0.356

Quick one: Fold obs. / pred. (hep.) CL,b,u - Kilford of COc1cccc(OCCCN)c1-c1cc(Nc2cnc(C#N)cn2)n[nH]1 [MSC020] ?
1.5
